Protein target, amino acids: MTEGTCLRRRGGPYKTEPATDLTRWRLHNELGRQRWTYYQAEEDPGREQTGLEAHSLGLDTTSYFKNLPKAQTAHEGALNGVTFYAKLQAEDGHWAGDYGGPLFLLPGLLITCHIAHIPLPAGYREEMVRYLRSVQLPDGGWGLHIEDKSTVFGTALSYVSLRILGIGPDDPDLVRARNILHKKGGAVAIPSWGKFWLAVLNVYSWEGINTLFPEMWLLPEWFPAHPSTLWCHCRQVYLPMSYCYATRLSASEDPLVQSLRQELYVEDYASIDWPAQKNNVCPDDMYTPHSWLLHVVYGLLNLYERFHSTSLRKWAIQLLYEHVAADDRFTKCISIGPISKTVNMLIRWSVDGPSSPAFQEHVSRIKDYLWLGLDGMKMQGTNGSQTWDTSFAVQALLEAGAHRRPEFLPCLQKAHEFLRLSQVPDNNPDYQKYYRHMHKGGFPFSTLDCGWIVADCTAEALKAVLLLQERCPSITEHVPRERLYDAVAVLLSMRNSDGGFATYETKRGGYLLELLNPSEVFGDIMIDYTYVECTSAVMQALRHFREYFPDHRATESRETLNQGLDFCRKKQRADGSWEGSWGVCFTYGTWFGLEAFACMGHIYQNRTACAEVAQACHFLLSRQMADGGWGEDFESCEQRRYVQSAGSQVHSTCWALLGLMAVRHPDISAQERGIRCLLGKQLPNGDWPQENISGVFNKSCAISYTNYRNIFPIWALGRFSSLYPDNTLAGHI
pIC50: −log10 of the molar value.
Test readout: pIC50

Quick one: pIC50 for CC1(C)[C@@H](O)CC[C@]2(C)CCCC[C@@H]12 (relative stereo) ? 3.37

For the molecule CC1(C)[C@@H](O)CC[C@]2(C)CCC(F)(F)C[C@@H]12 (relative stereo) , what pIC50 is on record? 3.37

Data origin: patent US4863932A
